Molecular target: GST-TMEM106B (truncated, comprising amino acids 122-210 of SEQ ID NO:1) (Homo sapiens, UniProt Q9NUM4)
Sequence (Q9NUM4 122-210): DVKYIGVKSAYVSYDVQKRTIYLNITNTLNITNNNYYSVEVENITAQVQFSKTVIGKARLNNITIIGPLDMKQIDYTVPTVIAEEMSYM
Assay: Pre-mix epitope binning of anti-TMEM106B antibodies (Carterra / Lake Pharma)
Assay type: binding
Parameters: key: Bin 1: competes for binding to the same or overlapping TMEM106B region as the TM1, TM17, TM22, TM26, TM79, and/or TM82 antibodies; Bin 2: competes for binding to the same or overlapping TMEM106B region as the TM3, TM9, TM10, TM11, TM12, TM13, TM18, TM19, TM21, TM24, TM25, TM32, TM35, TM37, TM42, TM45, TM48, TM54, TM59, TM60, TM61, and/or TM76 antibodies; Bin 3: competes for binding to the same or overlapping TMEM106B region as the TM7, TM15, TM83, and/or TM84 antibodies; Bin 4: competes for binding to the same or overlapping TMEM106B region as the TMS, TM28, TM29, TM30, TM63, TM64, TM72, TM78, TM80, TM86, and/or TM88 antibodies; Bin 5: does not bind to a truncated TMEM106B comprising amino acids 122-210 of SEQ ID NO:1
Conditions: competition for binding to truncated GST-TMEM106B (amino acids 122-210)
Experimental: Monoclonal anti-TMEM106B antibodies were immobilized to a CMD 50M chip (Xantec # SPMXCMD5OM lot# SCCMD50M0416). The running buffer was HBS-EP+ with 1 mg/mL BSA. The GST-TMEM106B (truncated, comprising amino acids 122-210 of SEQ ID NO:1) antigen was prepared at a final concentration of 55 nM (corresponding to 2 μg/mL) and mixed with the competing analyte anti-TMEM106B antibodies at a final concentration of 333 nM (corresponding to 50 μg/mL) or compared to a buffer control. […]
REPORTED_METRIC: epitope bin

1. TM-32: anti-TMEM106B monoclonal antibody; CDR-H1-3 SEQ ID NO: 13, 63, 106; CDR-L1-3 SEQ ID NO: 145, 160, 200 (antibody, V domains shown) VH: EVQLQQSGAELVRPGASVRLSCIASGFNIKDYYMYWVKQRPEQGLEWIGRIDPEDGDTEYVPKFQGKATMTADTSSNTAYLQLSSLTSEDIGVYYCTTRTWDLYYAVDNWGQGTSVTVSS VL: DVLMTQTPLSLPVSLGDQASISCRSSQNIVHSNGNTYLEWYLQKPGQSPKLLIDKVSNRFSGVPDRFSGSGSGTDFTLKISRVEAEDLGIYYCFQGSHVPFTFGSGTKLEIK: Bin 2
2. TM-72: anti-TMEM106B monoclonal antibody; VH SEQ ID NO: 477, VL SEQ ID NO: 512 (antibody, V domains shown, Variable Heavy Chain -- TM-72; Variable Light Chain -- TM-71, TM-72) VH: QVQLQQPGAELVKPGTSVKLSCKASGSTFTNYWMHWVMQRPGQGLEWIGNIDPSDSDTHYNQKFKDRAKLTVDKSSSTAYMQLSGLTSEDSAVYYCARSRGGYYDYGEAMDYWGQGTSVTVSS VL: DIVMTQAAPSVPVTPGESVSISCRSSKSLLHTNGNTYLFWFIQRPGQSPHLLIYRKSNLASGVPDRFSGSGSGTAFTLRISRVEAEDVGVYYCMQHLEYPFTFGSGTKLEIK: Bin 4
